Test: endothelial E-selectin expression blockers – imaging, HUVEC, immunofluorescence, MLSMR starter and 10KST1 sets, primary screen (AID 487)
Details: HUVEC TNFalpha-induced E-selectin immunofluorescence imaging, at 2 µM
Active and inactive are the calls of the source.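 How the source made its calls: active means visually confirmed hit in the image check and inhibition above 20%; inconclusive means visually confirmed hit but inhibition not above 20%; inactive means no visual hit in the image check.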
The categories you may choose from are 1 (yes) = active, 0 (no) = inactive

Look over these answered cases.
CC(C)Cn1cc(C(=O)NCC2CCCO2)c2c3ccccc3n(C)c2c1=O (centres undefined): 0 (no)
CC(C)(C#N)C(C)(C)c1nn[nH]n1: 0 (no)
COc1ccc2nc(NC(=O)C(NS(=O)(=O)c3cccs3)C(C)C)sc2c1 (centres undefined): 0 (no)
Cc1cc(NS(=O)(=O)c2ccccc2)n(-c2ccccc2)n1: 0 (no)
O=C(CSc1nnc2scc(-c3ccccc3)n12)N1CCN(Cc2ccccc2)CC1: 0 (no)

Asked: Test call for this molecule, please: CCN(CC)C(=O)C1=C(C)NC(=O)NC1c1c(F)cccc1Cl (centres undefined)
Given back: 0 (no)

Asked: Hi, sorry to bother you, what did the test record for CC(=O)c1cc(-c2ccccc2)n(CC(=O)N2CCC(N3CCCCC3)CC2)c1C ?
Given back: 0 (no)

Asked: // param item: Nn1c(CSc2nc3ccccc3o2)nnc1CSc1nc2ccccc2o1 ; yields the recorded call
Given back: 0 (no)

Asked: Returns: the outcome recorded for COCCNC(=O)Cn1nc(C(F)(F)F)c(Br)c1C in this assay.
Given back: 0 (no)

Asked: Would you mind telling me which call this test gave O=c1cc(-c2ccco2)oc2ccc(Cl)cc12 ?
Given back: 0 (no)

Asked: Dear colleague, could you share the recorded outcome for CCOC(=O)c1sc2nc3c(cc2c1N)COC(C)(C)C3 when you have a moment?
Given back: 0 (no)

---

Experiment: endothelial E-selectin expression blockers – imaging, HUVEC, immunofluorescence, MLSMR starter and 10KST1 sets, primary screen (AID 487);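 on nuclei count: 100% = median nuclei count of all wells on the same plate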
Conditions: HUVEC TNFalpha-induced E-selectin immunofluorescence imaging, at 2 µM; measured here: cell number, toxicity
Measured parameter: nuclei count (%)
Please reply with the bare figure in % and do not write the unit itself.

Asked: Could you share which nuclei count value was measured for Cc1ccc(NC(=O)N2CCC(c3nc4c(nnn4Cc4cccc(Cl)c4)c(=O)[nH]3)CC2)cc1 ?
Given back: 124

Asked: What value of measured nuclei count is listed for O=C(NCc1ccccc1)N1CCn2c(nc3ccccc32)C1 ?
Given back: 111

---

Assay: endothelial E-selectin expression blockers – imaging, HUVEC, immunofluorescence, MLSMR starter and 10KST1 sets, primary screen (AID 487);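 on inhibition: signal is fraction of cell area covered by stained E-selectin grains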
Conditions: HUVEC TNFalpha-induced E-selectin immunofluorescence imaging, at 2 µM; stronger effect = higher value
Please use Met whenever inhibition is not below -70%, and Not met whenever it is.

CCC(=O)Nc1ccc(F)c(Cl)c1: Not met
CN(C)c1ccc(NC(=O)CSCc2nc3c(nnn3Cc3ccc(F)cc3)c(=O)[nH]2)cc1: Not met
C=CCn1c(COc2ccccc2F)nnc1SCC(=O)N1CC(=O)Nc2ccccc21: Met
O=C(OCc1cccs1)c1ccccc1NS(=O)(=O)c1ccc2c(c1)OCCO2: Met

Consider now this further compound.
Asked: Quick check: does CCOC(=O)c1sc(NC(=O)CSc2nnc(-c3ccco3)n2CC)c(C(=O)OCC)c1C have inhibition greater than or equal to -70%?
Given back: Met

---

Assay: blockers of RIG-like receptor reporter activation – cell-based, Sendai virus stimulus, luciferase, 10K MLSCN set, TLR/RLR signaling modifier project, primary screen (AID 602276);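 further: firefly luciferase from ISG56 promoter only with Renilla not read in this screen; 0% = Sendai virus plus DMSO and 100% = medium plus DMSO without virus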
Conditions: HEK293 RL24 IRF3 luciferase reporter, at 10 µM, stronger effect = higher value
inhibition values by entry
Dear colleague, please return just the value in %, with no unit written.

In the examples that follow, each entry is paired with its recorded inhibition.
CCSc1nnc(NC(=O)CSc2ncccn2)s1: -9.35
Cn1c(=O)c2c(nc(N3CCCCC3)n2CCSc2nc3ccccc3o2)n(C)c1=O: -13.5
O=C(CCCn1c(=S)[nH]c2ccccc2c1=O)N1CCCCC1: -0.408
Clc1ccccc1-c1nnc2sc(-c3ccccn3)nn12: 14.6
CCOc1ccc(-n2c(C)nc3c(cnn3-c3ccc(Cl)cc3)c2=O)cc1: -2.74
CCSc1nnc(NC(=O)c2cc(C)oc2C)s1: -35.9
COc1ccc(CCNS(=O)(=O)c2ccc(C(=O)NCc3ccco3)cc2)cc1OC: -8.15
COC(=O)CN(c1ccc(F)cc1)S(=O)(=O)c1ccccc1: 6.05

Asked: Query: inhibition; subject: N#CC1=C(N)Oc2n[nH]c(-c3cccs3)c2C1c1cccs1 (configuration not stated)
Given back: 13.4

Asked: Recorded inhibition of CC(=O)Nc1ccc(Cl)c(C(N)=O)c1 , please.
Given back: 19.4

Asked: Consider the compound shown here: CCSc1nnc(NC(=O)c2nn(C(C)C)c(=O)c3ccccc23)s1 What is its recorded inhibition?
Given back: 9.39

Asked: I'd like to know its inhibition. The compound in question is N#CCc1nc(CSc2nc3ccccc3s2)cs1
Given back: -24.2

---

Entries and their measured inhibition of aggregation follow.
Assay: reduction of polyQ htt aggregates in cells – imaging, exon1htt(103Q)mCFP cells, high-content imaging, primary screen (AID 483);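 further: compound exposure lasted 3 days before fixation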
Conditions: exon1htt(103Q)mCFP cell line, aggregate imaging, at 2 µM; stronger effect = higher value
Reply numerically in %, unit not repeated.

Examples from the recorded data:
N#Cc1cnc(SCC(=O)Nc2ccccc2C(F)(F)F)nc1N: 15.1
CCOC(=O)CSc1cn2c(n1)CCC2: 14.3
COc1ccc(CN(C(=O)CNC(=O)c2ccco2)C(C(=O)NC2CCCC2)c2ccco2)cc1 (stereo unspecified): 3.1

Asked: So what's the measured inhibition of aggregation for this one? COC(=O)c1ccc(CN(c2ccccc2OC)S(=O)(=O)c2cccs2)o1
Given back: -4.4

Asked: Can you look up the measured inhibition of aggregation of CCCn1nnnc1SCC(=O)c1ccc2c(c1)OCCO2 for me?
Given back: -22.6

Asked: Which inhibition of aggregation value belongs to Cc1nc2nc(SCC(=O)NCc3ccco3)nn2c(C)c1Cc1ccccc1 ?
Given back: -6.7

---

Experiment: reduction of polyQ htt aggregates in cells – imaging, exon1htt(103Q)mCFP cells, high-content imaging, primary screen (AID 483);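 further: compound exposure lasted 3 days before fixation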;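 on nuclei count: percent of the per-plate median nuclei count of sample wells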
Details: exon1htt(103Q)mCFP cell line, aggregate imaging, at 2 µM; measured here: cell count, toxicity
// boundary case: nuclei count equal to 90% maps to label 0; strictly smaller maps to label 1

Consider the worked cases shown below.
O=c1c2ccccc2cnn1-c1nc2ccccc2s1: label 0
CCOC(=O)C1=C(C)NC(C)=C(C(=O)OC)C1c1cccc([N+](=O)[O-])c1 (configuration not stated): label 0
O=C(CN1C(=O)C2CC=C(Cl)CC2C1=O)Nc1ccc(C(=O)O)cc1 (configuration not stated): label 0
Cn1c2ccccc2c2c(C(=O)NCCCN3CCCC3=O)cn(C3CCCCC3)c(=O)c21: label 0
Cc1cccc(N2CCN(C(=O)c3cc4c(=O)[nH]c5ccccc5c4n3C)CC2)c1C: label 1
CN(C)Cc1c(O)ccc2oc(Cc3ccccc3)cc12: label 1

Asked: Threshold test, nuclei count < 90%: Cc1ncoc1C(=O)Nc1cccc(Cl)c1C
Given back: label 1

Asked: Here's an entry: CCN(CC)CC(=O)Nc1ccc(-c2nc3cc(NC(=O)CN(CC)CC)ccc3o2)cc1 . Is its nuclei count below 90%?
Given back: label 0

Asked: Threshold test, nuclei count < 90%: COc1ccc(-n2ncc3c(NCc4ccc5c(c4)OCO5)ncnc32)cc1
Given back: label 0

Asked: Take the compound COc1ccc(C2C(C(=O)c3sc(C)nc3C)=C(O)C(=O)N2CCN2CCOCC2)cc1 (configuration not stated) and say whether its nuclei count is less than 90%.
Given back: label 0

Asked: nuclei count strictly < 90% for this compound? COC(=O)c1c(C(=O)OC)n(CCCN)c2ccc(C)cc12
Given back: label 0

Asked: Dear reviewer, please state whether CCOc1cc(C2C(C(=O)OC(C)C)=C(C)N=C3SCCC(=O)N32)ccc1OC(C)=O (configuration not stated) has nuclei count strictly beneath 90%.
Given back: label 0

---

Test: endothelial E-selectin expression blockers – imaging, HUVEC, immunofluorescence, MLSMR starter and 10KST1 sets, primary screen (AID 487);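 on inhibition: signal is fraction of cell area covered by stained E-selectin grains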
Conditions: HUVEC TNFalpha-induced E-selectin immunofluorescence imaging, at 2 µM; stronger effect = higher value
The label depends only on inhibition: Satisfied if it is at least -40%, Not satisfied if it is smaller.

Reference set (5 entries):
CCCOc1nc(N)c(C#N)c(-c2ccccc2F)c1C#N: Satisfied
O=C(Nc1nncs1)c1ccccc1NS(=O)(=O)c1cccs1: Not satisfied
Cc1nc(NCc2ccccn2)c2ccccc2n1: Not satisfied
C/C(=N\O)c1ccc2c3c([nH]c2c1)CCCC3: Not satisfied
COc1ccccc1NC(=O)N1CCCC1C(=O)NC1CCCCC1 (stereo unspecified): Satisfied

Turning now to a further record.
Asked: Textbook exercise: given the entry O=C(c1ccc(-c2cccc(C(F)(F)F)c2)o1)N1CCOCC1 , state whether its inhibition is greater than or equal to -40%.
Given back: Satisfied
